Biological target: HisH (Thermotoga maritima, UniProt Q9X0C8)
Sequence (Q9X0C8 1-201): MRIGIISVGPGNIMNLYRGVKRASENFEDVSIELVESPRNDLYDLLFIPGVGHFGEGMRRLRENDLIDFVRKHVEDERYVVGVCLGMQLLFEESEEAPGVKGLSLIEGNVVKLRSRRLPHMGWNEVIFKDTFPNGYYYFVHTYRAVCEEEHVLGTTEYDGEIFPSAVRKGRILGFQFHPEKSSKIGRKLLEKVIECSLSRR
Sequence (Q9X0C6 1-253 partner): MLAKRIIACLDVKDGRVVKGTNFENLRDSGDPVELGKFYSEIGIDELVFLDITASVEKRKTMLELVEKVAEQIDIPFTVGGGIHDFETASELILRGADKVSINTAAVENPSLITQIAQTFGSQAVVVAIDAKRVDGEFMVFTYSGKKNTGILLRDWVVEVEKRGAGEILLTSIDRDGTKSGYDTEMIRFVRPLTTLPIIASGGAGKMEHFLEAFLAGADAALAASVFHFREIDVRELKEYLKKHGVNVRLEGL
Assay: NMR titration (methyl TROSY)
Measured parameter: pKd
pKd here is simply -log10 of the concentration when that concentration is written in mol/L.

// pKd lookup, key: NC(=O)CC[C@H](N)C(=O)O [Gln]
2.89

All values here come from paper PMC8115485.
